Parameter: SI CC50/EC50. Scope: all listed entries.
- System: rgRSV224 virus
- ASSAY OVERVIEW: microbe, parasite or virus in culture
- Assay type: cell-based, respiratory syncytial virus (RSV)
- DETAILS: Table 2; selectivity index, CC50 (HeLa cytotoxicity) over EC50 (rgRSV224)

[[record]]
compound = "CS(=O)(=O)CCCn1c(Cn2c(=O)n(C3CC3)c3ccncc32)nc2ccccc21 [Ref1, reference compound]"
recorded_metric = "SI CC50/EC50"
result = ">4315"

[[record]]
compound = "CC(C)(C)OC(=O)CCCn1c(Cn2c(=O)n(C3CC3)c3ccncc32)nc2cc(Cl)ccc21"
recorded_metric = "SI CC50/EC50"
result = 70937

[[record]]
compound = "CCCS(=O)(=O)NC(=O)CCCn1c(Cn2c(=O)n(C3CC3)c3ccncc32)nc2cc(Br)ccc21"
recorded_metric = "SI CC50/EC50"
result = ">57893"

[[record]]
compound = "CN(C)C(=O)Cn1c(=O)n(Cc2nc3cc(Cl)ccc3n2CCCCF)c2cnccc21"
recorded_metric = "SI CC50/EC50"
result = ">39781"

[[record]]
compound = "O=C(CCCn1c(Cn2c(=O)n(C3CC3)c3ccncc32)nc2cc(Cl)ccc21)NS(=O)(=O)C1CC1"
recorded_metric = "SI CC50/EC50"
result = ">55412"

[[record]]
compound = "CC(C)(C)OC(=O)Cn1c(=O)n(Cc2nc3cc(Cl)ccc3n2CCCC(F)(F)F)c2cnccc21"
recorded_metric = "SI CC50/EC50"
result = ">59486"


# ---- query compound ----
Qu. Using the record for O=c1n(Cc2nc3cc(Cl)ccc3n2CCCCF)c2cnccc2n1CC(F)F , report its SI CC50/EC50.
Ans. 2000000

All values here come from patent US8865705B2.
